Biological target: T1, La RRM1-RRM2-Cter (Homo sapiens, UniProt P05455 105-408)
T1 sequence: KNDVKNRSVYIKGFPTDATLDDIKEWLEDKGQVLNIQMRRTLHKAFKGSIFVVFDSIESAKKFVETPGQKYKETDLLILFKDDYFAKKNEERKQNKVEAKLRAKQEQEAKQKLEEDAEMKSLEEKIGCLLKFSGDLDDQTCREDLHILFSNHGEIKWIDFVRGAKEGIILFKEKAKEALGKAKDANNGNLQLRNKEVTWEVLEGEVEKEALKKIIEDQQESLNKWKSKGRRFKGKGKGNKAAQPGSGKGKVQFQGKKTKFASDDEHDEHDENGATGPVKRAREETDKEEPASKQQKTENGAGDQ
Experiment: ITC; 50 mM KPi pH 7, 25 C; 50 mM KPi pH 7; ITC at 25 C (50 uM protein in cell, 500 uM RNA in syringe); NMR at 298 K, 0.1 mM protein, 90% H2O/10% D2O
Conditions: protein: recombinant; tags: IMAC tag (pET20b+; tag not specified)
RECORDED ENDPOINT: Kd (µM)
Answers are plain numbers, in µM.

Prompt: I'd like to know its Kd. The binder in question is AGACCGUGCACCAUGAGCACGAAUCCA (structured_RNA) [HCV-IRES domain IV]
Response: 9.76
